Target: FLT3 D835V (Homo sapiens, UniProt P36888, D835V)
Assay: DiscoverX KINOMEscan competition binding, FLT3 D835V
Conditions: no ATP
reported endpoint: Kd

Endpoint output: Kd of COc1cc2ncc(-c3nc(N[C@H]4CNCC[C@@H]4F)c(F)cc3F)n2nc1C1CCC1 [Compound 15a] . Value?
< 0.17 nM

---

reported endpoint: pKd
Worth noting: pKd values are minus log10 of concentrations stated in mol/L.

Test system IRAK1 (Homo sapiens); read-out pKd; what value for COc1cc2ncc(-c3nc(N[C@H]4CNCC[C@@H]4F)c(F)cc3F)n2nc1C1CCC1 [Compound 15a] ?
8.85

---

Assignment: determine reported pIC50 for the given molecules.
Biological target: FLT3 (Homo sapiens, UniProt P36888)
Assay: RBC HotSpot Kinase Assay, FLT3
Assay type: biochemical
Design: purchased RBC (Reaction Biology) HotSpot assay
Settings: HotSpot functional assay, isolated kinase enzyme, 33P-ATP
Worth noting: pIC50 values are minus log10 of concentrations stated in mol/L.

Endpoint output: pIC50 of COc1cc2ncc(-c3cc(C)cc(N[C@@H]4CCCNC4)n3)n2nc1C1CC1 [Compound 51a] . Value?
8.70

Endpoint output: pIC50 of COc1cc2ncc(-c3nc(N[C@@H]4CCCNC4)ccc3F)n2nc1C(C)(C)O [Compound 3a] . Value?
9.00

Endpoint output: pIC50 of COc1cc2ncc(-c3cc(Oc4ccccc4)cc(N[C@@H]4CCCNC4)n3)n2nc1C1CC1 [Compound 59a] . Value?
7.02

Endpoint output: pIC50 of COc1cc2ncc(-c3nc(N[C@H]4CNC[C@@H]4F)ccc3F)n2nc1C(C)(C)O [Compound 2a] . Value?
9.10

Endpoint output: pIC50 of COc1cc2ncc(-c3cc(-c4ccccc4)cc(N[C@H]4CNCC[C@@H]4F)n3)n2nc1C1CC1 [Compound 53a] . Value?
6.52

Endpoint output: pIC50 of COc1cc2ncc(-c3cc(Oc4ccccc4)cc(N[C@H]4CNC[C@@H]4F)n3)n2nc1C1CC1 [Compound 60a] . Value?
6.56

Endpoint output: pIC50 of COc1cc2ncc(-c3nc(N[C@H]4CNC[C@@H]4F)c(F)cc3F)n2nc1C(C)(O)C(F)(F)F (single isomer, unassigned) [Compound 78a] . Value?
9.00

---

Molecular target: FLT3 (Homo sapiens, UniProt P36888)
Sequence (P36888 27-993): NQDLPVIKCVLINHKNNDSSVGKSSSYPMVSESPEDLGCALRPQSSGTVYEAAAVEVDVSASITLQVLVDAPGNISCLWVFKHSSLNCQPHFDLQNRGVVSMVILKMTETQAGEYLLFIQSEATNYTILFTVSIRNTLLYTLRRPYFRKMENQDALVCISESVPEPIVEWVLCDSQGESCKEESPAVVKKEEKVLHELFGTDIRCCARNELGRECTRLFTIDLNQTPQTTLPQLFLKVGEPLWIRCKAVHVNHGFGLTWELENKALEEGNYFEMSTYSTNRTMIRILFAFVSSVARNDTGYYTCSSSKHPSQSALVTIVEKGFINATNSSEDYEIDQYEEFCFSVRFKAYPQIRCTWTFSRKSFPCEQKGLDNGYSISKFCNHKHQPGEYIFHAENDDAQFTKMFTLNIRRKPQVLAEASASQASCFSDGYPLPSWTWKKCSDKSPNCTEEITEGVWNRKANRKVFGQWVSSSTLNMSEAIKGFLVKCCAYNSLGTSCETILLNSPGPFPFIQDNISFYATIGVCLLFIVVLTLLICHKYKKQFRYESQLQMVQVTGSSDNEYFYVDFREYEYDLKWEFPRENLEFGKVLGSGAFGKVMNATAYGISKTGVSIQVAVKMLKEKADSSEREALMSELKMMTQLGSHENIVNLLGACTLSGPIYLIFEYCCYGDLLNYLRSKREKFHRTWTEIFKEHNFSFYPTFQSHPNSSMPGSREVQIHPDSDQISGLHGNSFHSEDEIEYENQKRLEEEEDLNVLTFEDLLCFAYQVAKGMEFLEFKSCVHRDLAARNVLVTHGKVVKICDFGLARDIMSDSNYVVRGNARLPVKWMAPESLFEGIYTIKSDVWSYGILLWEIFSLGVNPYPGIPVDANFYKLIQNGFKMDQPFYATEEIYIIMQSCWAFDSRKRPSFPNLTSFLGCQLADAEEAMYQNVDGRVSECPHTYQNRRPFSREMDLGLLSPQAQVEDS
Test: RBC HotSpot Kinase Assay, FLT3
Format: biochemical
Set-up: purchased RBC (Reaction Biology) HotSpot assay
Conditions: HotSpot functional assay, isolated kinase enzyme, 33P-ATP
pIC50: −log10 of the molar value.
reported endpoint: pIC50

Endpoint output: pIC50 of COc1cc2ncc(-c3cc(-c4ccccc4)cc(N[C@@H]4CCCNC4)n3)n2nc1C1CC1 [Compound 55a] . Value?
6.13

Endpoint output: pIC50 of COc1cc2ncc(-c3nc(N[C@H]4CNCC[C@@H]4F)c(F)cc3F)n2nc1C1CC2(CCC2)C1 [Compound 10a] . Value?
> 9.30

Endpoint output: pIC50 of Fc1cc(F)c(-c2cnc3cc(OCC(F)F)cnn23)nc1N[C@@H]1CCCNC1 [Compound 83a] . Value?
9.30

Endpoint output: pIC50 of COc1cc2ncc(-c3nc(N[C@H]4CNCC[C@@H]4F)c(F)cc3F)n2nc1C1CCC1 [Compound 15a] . Value?
> 9.30

Endpoint output: pIC50 of COc1cc2ncc(-c3ccc(C#N)c(N[C@H]4CNC[C@@H]4F)n3)n2nc1C1CC1 [Compound 27a] . Value?
> 9.30

Endpoint output: pIC50 of COc1cc2ncc(-c3nc(N[C@H]4CNC[C@@H]4F)c(F)cc3F)n2nc1C1CCCCC1 [Compound 19a] . Value?
> 9.30

Endpoint output: pIC50 of COc1cc2ncc(-c3cc(C4CC4)cc(N[C@@H]4CCCNC4)n3)n2nc1C1CC1 [Compound 58a] . Value?
8.30

Endpoint output: pIC50 of COc1cc2ncc(-c3nc(N[C@H]4CNCC[C@@H]4F)ccc3F)n2nc1C1CC1 [Compound 47a] . Value?
> 9.30

---

Tested on: THP1 cells
Experiment: Combination drug screening, Cell Titer Glo, THP1 cells;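 also: luminescence read out in 1536-well plates seeded with 500 THP1 cells per well, each drug spanning a 10-point concentration range in the combination matrix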
Conditions: sum score; listed as compound in combination with Compound 45a; THP1 cells; 10 × 10 dataset; 48 hours
reported endpoint: Excess HSA Score
Please reply with the value in numeric form only.

Endpoint output: Excess HSA Score of NC1(C(=O)N[C@@H](CCO)c2ccc(Cl)cc2)CCN(c2nc[nH]c3nccc2-3)CC1 . Value?
−1027.6539

Endpoint output: Excess HSA Score of COCC1(CO)C(=O)C2CCN1CC2 (stereo not drawn) [Eprenetapopt/APR-246, APR-246 (Eprenetapopt)] . Value?
−629.2

Endpoint output: Excess HSA Score of CCN(C(=O)c1cc(F)ccc1Oc1cncnc1N1CC2(CCN(C[C@H]3CC[C@H](NS(=O)(=O)CC)CC3)CC2)C1)C(C)C . Value?
434.8

Endpoint output: Excess HSA Score of C[C@@H]1OCC2(CCN(c3cnc(Sc4ccnc(N)c4Cl)c(N)n3)CC2)[C@@H]1N . Value?
64.74

Endpoint output: Excess HSA Score of C[C@]12C=CC(=O)C=C1CC[C@@H]1[C@@H]2[C@@H](O)C[C@@]2(C)[C@H]1CC[C@]2(O)C(=O)CO . Value?
438.5

Endpoint output: Excess HSA Score of CC(C)Nc1cc(-c2c[nH]c(C(=O)N[C@H](CO)c3cccc(Cl)c3)c2)c(Cl)cn1 . Value?
−14.94

Endpoint output: Excess HSA Score of CC(=O)c1c(C)c2cnc(Nc3ccc(N4CCNCC4)cn3)nc2n(C2CCCC2)c1=O . Value?
−912.2

Endpoint output: Excess HSA Score of Nc1cccc2c1CN(C1CCC(=O)NC1=O)C2=O (stereo not drawn) [Lenalidomide] . Value?
−245.1

Endpoint output: Excess HSA Score of CC1(C)CCC(CN2CCN(c3ccc(C(=O)NS(=O)(=O)c4ccc(NCC5CCOCC5)c([N+](=O)[O-])c4)c(Oc4cnc5[nH]ccc5c4)c3)CC2)=C(c2ccc(Cl)cc2)C1 . Value?
−1070

Endpoint output: Excess HSA Score of CC(C)[C@@H](CS(=O)(=O)C(C)C)N1C(=O)[C@@](C)(CC(=O)O)C[C@H](c2cccc(Cl)c2)[C@H]1c1ccc(Cl)cc1 . Value?
441

Endpoint output: Excess HSA Score of N#Cc1ccnc(N2C(=O)CC[C@H]2C(=O)N(c2cncc(F)c2)[C@H](C(=O)NC2CC(F)(F)C2)c2ccccc2Cl)c1 . Value?
−296.7

Endpoint output: Excess HSA Score of COc1cc(F)ccc1-c1cc(Nc2cc(CS(C)(=N)=O)ccn2)ncc1F (single isomer, unassigned; (+)) [(+)-BAY-1251152, BAY1251152] . Value?
−860.7

Where do the numbers come from? From patent US20250368648A1.
